- test target: CHIKV-IbH35 virus (West African genotype), envelope glycoproteins E2-E1 (Chikungunya virus (strain IbH35))
# maps each entry to its EC50 of neutralisation of CHIKV-IbH35 (FRNT on Vero cells)
Give the value, in units of ng/mL, as a plain number.

Worked examples, 2 binders total:
• CHK-263 (mouse monoclonal antibody) (antibody, V domains shown) VH: QVQLQQSGAELVKPGASVKISCKASGYAFSSYWMNWVKQRPGKGLEWIGQIYPGDGDTNYNGKFKGKATLTADKSSSTAYMQLSSLTSEDSAVYFCARGGLTIDYWGQGTTLTVSS VL: DIVLTQSPATLSVTPGDSVSLSCRASQSISDNLHWYQQKSHESPGLLIKYASQSISGIPSRFSGSGSGTDFTLSINSVETEDFGMYFCQQSNSWPYTFGGGTKLEIK = 2
• CHK-152 (mouse monoclonal antibody) (antibody, V domains shown) VH: QVQLQQPGAALVKPGASAMMSCKASGYTFTSYWITWVKQRPGQGLEWIGDIYPGTGRTIYKEKFKTKATLTVDTSSSTAFMQLNSLTSEDSAVYYCARGYGSPYYALDYWGQGTSVTVSS VL: DIVLTQSPASLAVSQGQRATISCKASQSVDYDGDSYVNWYQQKPGQSPKLLIYDASNLESGIPARFSGSGSGTDFTLNIHPVEEEDVATYYCQESNEDPRTFGGGTKLEIK = 1

Switching to the query record.
Query :: # query: EC50 of neutralisation of CHIKV-IbH35 (FRNT on Vero cells) of entry CHK-102 (mouse monoclonal antibody) (antibody, V domains shown) VH: QVQLQQSGAELVKPGASVKISCKTSGYAFSSFWMHWVKQRPGKGLEWIGQIYPGDGDTNYNGKFKDKATLTADKSSNTAYMQLTSLTSEDSAVYFCARNLLFDYWGQGTTLTVSS VL: EILMTQSPAILSVSPGERVSFSCRASQSIGSNIHWYQQRTNGSPRLLIKYASESISGIPSRFSGSGSGTDFTLSINSVESEDIADYYCQQNNIWPFTFGSGTKLEIK
Result :: 6

Data credit: paper PMC3630103
